Tested on: TK-10 renal
Assay: NCI tumour cell line growth inhibition, 48 h
Reported TGI values are given for each entry in this list.
Report only the number, with the unit µM understood.

Example results:
CC(C)[C@H]1COC(=O)N1[C@@H]1C(=O)N([C@@H](CCC(=O)N2CCN(C3CCCC3)CC2)C(=O)N[C@@H]2CCCc3ccccc32)[C@@H]1/C=C/c1cccc(Br)c1	3.47
OCc1ccc(-c2ccc(-c3ccc(CO)s3)o2)s1	0.171

// moving on: another record for TGI
INPUT: Observed TGI on TK-10 renal for Cc1cc(I)cc(CN(C)CCCN2CCCCC2)c1O , please.
OUTPUT: 37.7
